Test system: A498 renal
assayText: NCI-60 one-dose screen, 48 h
conditions: 10 µM unless noted
About 83,000 compounds went through this panel and 20% of them were active in at least one assay; those are over-represented in the sample as a whole. Calls of active or inactive are those of the source. Rule for the calls: active = growth percent below 10; inactive = the rest.
Field 'call' accepts TRUE for active, FALSE for inactive

Exercise: Called result for O=C(Nc1ccc(Oc2cccc(Cl)c2)c(Cl)c1)c1cccnc1
Solution: TRUE

Exercise: Lab log entry: O=C(CSc1nc2sc3c(c2c(=O)n1-c1ccccc1)CCCCC3)N/N=C/c1cccc([N+](=O)[O-])c1 — outcome as called in the assay?
Solution: FALSE

Exercise: For this molecule, state the assay outcome: COc1cc(-c2cncn2-c2ccc(-c3nc4ccc(F)cc4s3)cc2)ccc1F
Solution: FALSE

Exercise: Per the assay record, what outcome was assigned to O=C(Nc1ccccc1)Nc1ncnc2c1ncn2-c1ccc(Cl)cc1 ?
Solution: FALSE

Exercise: GET /call?item= Cc1ccc(C)n1-c1ccccc1-n1c(C)ccc1C returns the recorded outcome of this test.
Solution: FALSE

Exercise: Look up the recorded call for CCOC(=O)c1ccc2c(c1)nc(-c1ccccc1)n2C1CCCCC1 in this test.
Solution: FALSE

Exercise: What classification did CC(=O)c1c(C)nc(SCC(=O)Nc2cccc(O)c2)n1-c1ccc(Cl)cc1 end up with in this test?
Solution: FALSE

Exercise: Answer briefly: the call reported for CCOC(=O)C1=C(N)Oc2c(sc3c(F)cccc23)C1c1ccc(O)cc1 (stereo unspecified) in this assay.
Solution: FALSE

Exercise: Please indicate how the test categorized c1cnc2c(-c3nc4ccc5[nH]ncc5c4c4c3CCCC4)c[nH]c2c1 .
Solution: FALSE

Exercise: Could you please tell me the result logged for Clc1cc(Cl)c(Cl)c(-c2nnc(SCc3ccncc3Br)o2)c1 in this assay?
Solution: FALSE

Exercise: // outcome(item) with item = O=c1[nH]c(-c2ccccc2)nc2sc3cc(O)ccc3c12
Solution: FALSE

Exercise: Please state the recorded outcome for this molecule: O=C(c1ccccc1)c1ccc(C2CCCCC2)cc1
Solution: FALSE

Exercise: Returns: the outcome recorded for CCOc1nc(-c2ccccc2)cc2c(O)c(C(=O)N/N=C/c3ccccc3)[nH]c(=O)c12 in this assay.
Solution: FALSE

Exercise: Recorded test call requested for Nc1c(C(=O)Nc2ccncc2)sc2nc3c(cc12)C(O)CCC3 (stereo unspecified)
Solution: FALSE

Exercise: Outcome? OB1OCc2cc(/C=C/c3cccc(C(F)(F)F)c3)ccc21
Solution: TRUE

Exercise: Please let me know the test result on file for CCCc1c(OC(=O)c2ccccc2)nc2[nH]c(=O)sc2c1C .
Solution: FALSE

Exercise: Entry COc1cc(-c2csc(NC(=O)c3ccc(N4CCOCC4)c(C(F)(F)F)c3)n2)cc(OC)c1OC : call = ?
Solution: FALSE

Exercise: Tell me the assay call for COc1ccc(-c2noc(C(=O)O)c2-c2cc(OC)c(OC)c(OC)c2)cc1 please.
Solution: FALSE

Exercise: Which outcome did this test record for the molecule NS(=O)(=O)c1ccc(N=Nc2c(O)n(Cc3ccccc3)c3ccc(Cl)cc23)cc1 ?
Solution: FALSE

Exercise: # lookup: test call for CN(C)c1ccc(-c2c(C#N)c(N)nn2C(=O)c2ccc(NC(=O)c3ccccn3)cc2)cc1
Solution: FALSE

Exercise: Kindly provide the recorded test outcome for the following molecule: Cc1cc(N2CCN(CC(=O)Nc3ccc4c(ccn4C)c3)CC2)nc(N2CCCCCC2)n1
Solution: FALSE
